Method description: Cytotoxicity against dog MDCK cells assessed as cell morphology alterations
Assay type: cell-based, Canis lupus familiaris
MCC values by entry

>  <Molecule>
CC1(C)C2CC3CC(C2)CC1(N1CCCCC1)C3

>  <U>
µM

>  <Qual>
=

>  <MCC>
4

$$$$
>  <Molecule>
CCC1(CC)C2CC3CC(C2)CC1(NC)C3

>  <U>
µM

>  <Qual>
≥

>  <MCC>
100

$$$$
>  <Molecule>
CC(N)C12CC3CC(CC(C3)C1)C2 (configuration not stated)

>  <U>
µM

>  <Qual>
≥

>  <MCC>
100

$$$$
>  <Molecule>
NC12CC3CC(CC(C3)C1)C2

>  <U>
µM

>  <Qual>
=

>  <MCC>
500

$$$$
>  <Molecule>
CC(C)C1C2CC3CC(C2)CC1(N(C)C)C3 (configuration not stated)

>  <U>
µM

>  <Qual>
>

>  <MCC>
100

$$$$
>  <Molecule>
CC(C)C1C2CC3CC(C2)CC1(N)C3 (configuration not stated)

>  <U>
µM

>  <Qual>
=

>  <MCC>
5.3

$$$$
>  <Molecule>
CN(C)C12CC3CC(CC(C3)C1(C)C)C2

>  <U>
µM

>  <Qual>
=

>  <MCC>
110

$$$$

====

System: Vaccinia virus
Method description: Antiviral activity against Vaccinia virus by cell based assay
Type: functional, organism-based
Assay setup: Orthopoxvirus vaccinia
Activity calls are given as the source filed them. The calls are words filed in the database; no cut-off is given here.

>  <Compound>
CCCC1(CCC)C2CC3CC(C2)CC1(N)C3

>  <Activity>
inactive

$$$$
>  <Compound>
CC12CC3CC1(C)CC(N)(C2)C3(C)C

>  <Activity>
inactive

$$$$
>  <Compound>
CC(C)C1C2CC3CC(C2)CC1(N)C3 (configuration not stated)

>  <Activity>
inactive

$$$$
>  <Compound>
CCCC1(CCC)C2CC3CC(C2)CC1(N(C)C)C3

>  <Activity>
inactive

$$$$
>  <Compound>
CC1(C)C2CC3CC(C2)CC1(N)C3

>  <Activity>
inactive

$$$$
>  <Compound>
CC1(C)C2CC3CC(C2)CC1(N1CCCCC1)C3

>  <Activity>
inactive

$$$$
>  <Compound>
CC(C)C1C2CC3CC(C2)CC1(N(C)C)C3 (configuration not stated)

>  <Activity>
inactive

$$$$

====

Tested on: H3N2 subtype
Method description: Antiviral activity against Influenza A virus (A/HK/7/87 (H3N2)) infected in MDCK cells assessed as virus-induced cytopathic effect measured 3 days post infection by microscopic analysis
Format: functional, organism-based
Assay setup: A/Hong Kong/7/1987(H3N2), 72 h
Measurement type: EC50

>  <Molecule>
CC(C)C1C2CC3CC(C2)CC1(N(C)C)C3 (configuration not stated)

>  <Test result>
> 100 µM

$$$$
>  <Molecule>
NC12CC3CC(CC(C3)C1)C2

>  <Test result>
3.4 µM

$$$$
>  <Molecule>
CC(N)C12CC3CC(CC(C3)C1)C2 (configuration not stated)

>  <Test result>
0.17 µM

$$$$
>  <Molecule>
CN(C)C12CC3(C)CC(CC3(C)C1)C2(C)C

>  <Test result>
> 100 µM

$$$$
>  <Molecule>
CCOC(=O)C1=C[C@@H](OC(CC)CC)[C@H](NC(C)=O)[C@@H](N)C1

>  <Test result>
29 µM

$$$$
>  <Molecule>
NC(=O)c1ncn([C@@H]2O[C@H](CO)[C@@H](O)[C@H]2O)n1

>  <Test result>
7.7 µM

$$$$
>  <Molecule>
CN(C)C12CC3CC(CC(C3)C1(C)C)C2

>  <Test result>
> 100 µM

$$$$
>  <Molecule>
CC1(C)C2CC3CC(C2)CC1(NCc1ccccc1)C3

>  <Test result>
> 100 µM

$$$$
>  <Molecule>
CC1(C)C2CC3CC(C2)CC1(N)C3

>  <Test result>
> 100 µM

$$$$
>  <Molecule>
CN(Cc1ccccc1)C12CC3CC(CC(C3)C1(C)C)C2

>  <Test result>
> 100 µM

$$$$
>  <Molecule>
CC12CC3CC1(C)CC(N)(C2)C3(C)C

>  <Test result>
> 100 µM

$$$$
>  <Molecule>
CCC1(CC)C2CC3CC(C2)CC1(N(C)C)C3

>  <Test result>
> 100 µM

$$$$
